Hello, the source for this data is patent US4826984A, in case you need it.

% Active overview
Test system: tracheal organ cultures obtained from vitamin A deficient hamsters
Assay: tissue or blood
Format: cell-based, hamster
Conditions: 10^-10 M
I only need the number, in %, no unit after it.

CCOC(=O)c1ccc(/C=C(\C)c2ccc3c(c2)C(C)(C)CCS3)cc1 = 53.8
CCOC(=O)c1ccc(/C=C(\C)c2ccc3c(c2)C(C)(C)CCO3)cc1 = 50.0
CCOC(=O)c1ccc(/C=C(\C)c2ccc3c(c2)C(C)(C)CC[S+]3[O-])cc1 (stereo not shown) = 18.6

[Q] Provide only the value of recorded % Active for C/C(=C\c1ccc(C(=O)O)cc1)c1ccc2c(c1)C(C)(C)CCO2
[A] 57.1
